Quick reference for EC50 (nM), cleavage of purified hC3 in vitro among some binders
- targetOrSystem: human complement protein C3 (human) (UniProt P01024)
- Sequence (P01024 23-667, chain 1 of 2): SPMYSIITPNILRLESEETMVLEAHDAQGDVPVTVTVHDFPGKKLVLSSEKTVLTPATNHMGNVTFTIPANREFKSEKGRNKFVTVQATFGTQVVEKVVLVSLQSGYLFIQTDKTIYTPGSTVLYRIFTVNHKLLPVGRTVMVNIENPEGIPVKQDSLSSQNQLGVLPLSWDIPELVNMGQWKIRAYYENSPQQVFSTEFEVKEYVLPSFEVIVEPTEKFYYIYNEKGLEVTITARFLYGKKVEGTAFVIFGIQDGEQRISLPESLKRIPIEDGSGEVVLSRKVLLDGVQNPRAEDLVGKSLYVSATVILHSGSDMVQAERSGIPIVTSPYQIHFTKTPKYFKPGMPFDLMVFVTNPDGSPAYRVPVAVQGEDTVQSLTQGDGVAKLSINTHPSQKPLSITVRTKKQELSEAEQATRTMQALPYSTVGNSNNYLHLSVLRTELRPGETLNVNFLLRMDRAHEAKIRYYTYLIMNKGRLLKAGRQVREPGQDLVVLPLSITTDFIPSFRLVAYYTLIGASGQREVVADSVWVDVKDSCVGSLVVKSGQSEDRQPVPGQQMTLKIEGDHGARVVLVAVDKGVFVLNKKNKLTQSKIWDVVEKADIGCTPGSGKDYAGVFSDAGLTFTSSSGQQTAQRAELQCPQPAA
- Sequence (P01024 672-1663, chain 2 of 2): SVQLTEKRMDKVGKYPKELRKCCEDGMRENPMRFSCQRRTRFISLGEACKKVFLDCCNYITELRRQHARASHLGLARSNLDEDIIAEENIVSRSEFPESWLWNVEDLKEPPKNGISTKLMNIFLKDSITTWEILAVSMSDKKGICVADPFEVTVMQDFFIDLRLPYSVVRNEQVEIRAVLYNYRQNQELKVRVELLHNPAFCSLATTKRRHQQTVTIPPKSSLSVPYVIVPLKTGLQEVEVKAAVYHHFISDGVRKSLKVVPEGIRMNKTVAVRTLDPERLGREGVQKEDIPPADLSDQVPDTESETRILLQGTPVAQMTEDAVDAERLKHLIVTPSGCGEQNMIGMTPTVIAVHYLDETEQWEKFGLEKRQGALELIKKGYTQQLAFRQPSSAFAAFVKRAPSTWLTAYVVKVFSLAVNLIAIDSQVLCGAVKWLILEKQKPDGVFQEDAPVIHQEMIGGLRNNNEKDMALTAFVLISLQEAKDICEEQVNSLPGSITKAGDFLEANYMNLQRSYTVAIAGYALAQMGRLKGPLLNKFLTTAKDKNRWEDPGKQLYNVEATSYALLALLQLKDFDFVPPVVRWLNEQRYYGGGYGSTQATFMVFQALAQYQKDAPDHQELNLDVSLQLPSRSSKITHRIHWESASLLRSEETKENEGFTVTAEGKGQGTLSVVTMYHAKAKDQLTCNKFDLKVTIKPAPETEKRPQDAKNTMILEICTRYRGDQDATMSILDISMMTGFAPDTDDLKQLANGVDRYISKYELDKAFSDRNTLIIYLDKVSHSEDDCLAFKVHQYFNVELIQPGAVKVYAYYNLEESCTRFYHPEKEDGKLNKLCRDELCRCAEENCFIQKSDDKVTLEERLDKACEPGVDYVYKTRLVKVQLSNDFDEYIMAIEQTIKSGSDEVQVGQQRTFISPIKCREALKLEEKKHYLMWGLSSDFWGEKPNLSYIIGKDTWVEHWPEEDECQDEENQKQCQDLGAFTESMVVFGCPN
- assayDetails: cell-based or functional assay
Could you give me the number in nM? Just the number is fine.

[
  {
    "binder": "Q38H/I41A/D60bV/F60eR/Y60gW/D96P/ins97aN/F97W/T98G/F99L/C122S/G151N/Q175L/Q192D (enzyme) VVGGTDADEGEWPWQVSLHALGHGHACGASLISPNWLVSAAHCYIDVRGRRWSDPTQWTAFLGLHDQSQRSAPGVQERRLKRIISHPFFNPWNGLDYDIALLELEKPAEYSSMVRPISLPDASHVFPAGKAIWVTGWGHTQYGGTNALILQKGEIRVINQTTCENLLPQLITPRMMCVGFLSGGVDSCDGDSGGPLSSVEADGRIFQAGVVSWGDGCAQRNKPGVYTRLPLFRDWIKENTGV",
    "experimentalValue": 2.54
  },
  {
    "binder": "Q38H/I41S/D60bT/F60eS/Y60gW/D96Y/F97N/ins97aE/T98S/F99L/C122S/G151H/Q175L/Q192D (enzyme) VVGGTDADEGEWPWQVSLHALGHGHSCGASLISPNWLVSAAHCYIDTRGSRWSDPTQWTAFLGLHDQSQRSAPGVQERRLKRIISHPFFNYNESLDYDIALLELEKPAEYSSMVRPISLPDASHVFPAGKAIWVTGWGHTQYGGTHALILQKGEIRVINQTTCENLLPQLITPRMMCVGFLSGGVDSCDGDSGGPLSSVEADGRIFQAGVVSWGDGCAQRNKPGVYTRLPLFRDWIKENTGV",
    "experimentalValue": 4.53
  }
]

For the binder shown here, Q38Y/I41S/D60bT/F60eR/Y60gW/D96M/F97N/T98G/F99L/C122S/G151N/Q175L (enzyme) VVGGTDADEGEWPWQVSLHALGYGHSCGASLISPNWLVSAAHCYIDTRGRRWSDPTQWTAFLGLHDQSQRSAPGVQERRLKRIISHPFFNMNGLDYDIALLELEKPAEYSSMVRPISLPDASHVFPAGKAIWVTGWGHTQYGGTNALILQKGEIRVINQTTCENLLPQLITPRMMCVGFLSGGVDSCQGDSGGPLSSVEADGRIFQAGVVSWGDGCAQRNKPGVYTRLPLFRDWIKENTGV , give the reported EC50 (nM), cleavage of purified hC3 in vitro.
1.08
